Target: T1, monkey GFRα3 expressed with a C-terminal myc-myc-hexahistidine tag (monkey (Mf), UniProt O60609 32-374 (human entry), limits assumed)
T1 construct: also called MfGFRα3-mmh; MfGFRα3-mmH
T1 chain: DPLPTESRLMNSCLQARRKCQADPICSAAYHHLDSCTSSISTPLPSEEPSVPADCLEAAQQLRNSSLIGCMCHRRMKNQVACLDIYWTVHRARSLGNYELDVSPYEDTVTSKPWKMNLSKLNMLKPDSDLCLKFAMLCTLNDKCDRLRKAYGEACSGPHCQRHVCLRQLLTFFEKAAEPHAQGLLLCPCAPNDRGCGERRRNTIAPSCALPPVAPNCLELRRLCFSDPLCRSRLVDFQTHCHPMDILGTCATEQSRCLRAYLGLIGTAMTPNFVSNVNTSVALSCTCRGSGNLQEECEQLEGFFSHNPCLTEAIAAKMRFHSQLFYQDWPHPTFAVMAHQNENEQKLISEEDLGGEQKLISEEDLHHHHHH
Assay: SPR, Ab captured, 37C
Recorded Kd for the following binders

Examples with answers:
Item under review: H4H2354S (antibody, human IgG4, V domains shown, human IgG4 Fc (H4H); also called H4H2354S-1) VH: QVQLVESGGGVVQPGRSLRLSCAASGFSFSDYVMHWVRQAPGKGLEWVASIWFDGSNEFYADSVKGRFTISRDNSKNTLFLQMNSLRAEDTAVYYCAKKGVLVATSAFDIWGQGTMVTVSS VL: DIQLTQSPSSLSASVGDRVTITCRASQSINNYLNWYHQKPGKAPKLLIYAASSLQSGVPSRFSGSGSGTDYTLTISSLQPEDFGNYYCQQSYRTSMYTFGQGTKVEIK . Reported Kd? 2.78 nM

Item under review: H4H2350P (antibody, human IgG4, V domains shown, human IgG4 Fc (H4H)) VH: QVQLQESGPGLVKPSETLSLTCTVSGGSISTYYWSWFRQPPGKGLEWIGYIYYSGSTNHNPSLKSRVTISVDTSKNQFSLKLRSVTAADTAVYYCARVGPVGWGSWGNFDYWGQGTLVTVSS VL: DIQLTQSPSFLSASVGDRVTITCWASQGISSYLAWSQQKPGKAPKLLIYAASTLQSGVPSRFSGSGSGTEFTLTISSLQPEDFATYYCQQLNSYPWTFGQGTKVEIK . Reported Kd? 12 nM

Others:
Item under review: H4H2294S (antibody, human IgG4, V domains shown, human IgG4 Fc (H4H)) VH: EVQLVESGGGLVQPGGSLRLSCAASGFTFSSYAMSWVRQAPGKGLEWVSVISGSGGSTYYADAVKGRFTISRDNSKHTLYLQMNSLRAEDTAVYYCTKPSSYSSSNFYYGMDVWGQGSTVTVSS VL: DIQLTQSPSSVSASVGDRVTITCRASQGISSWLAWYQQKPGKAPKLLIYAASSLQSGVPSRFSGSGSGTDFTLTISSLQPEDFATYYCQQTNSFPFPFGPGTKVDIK . Reported Kd? 2.25 nM
